test.system: Voltage-gated inwardly rectifying potassium channel KCNH2 (Homo sapiens) (UniProt Q12809)
Sequence (Q12809 whole entry, looked up): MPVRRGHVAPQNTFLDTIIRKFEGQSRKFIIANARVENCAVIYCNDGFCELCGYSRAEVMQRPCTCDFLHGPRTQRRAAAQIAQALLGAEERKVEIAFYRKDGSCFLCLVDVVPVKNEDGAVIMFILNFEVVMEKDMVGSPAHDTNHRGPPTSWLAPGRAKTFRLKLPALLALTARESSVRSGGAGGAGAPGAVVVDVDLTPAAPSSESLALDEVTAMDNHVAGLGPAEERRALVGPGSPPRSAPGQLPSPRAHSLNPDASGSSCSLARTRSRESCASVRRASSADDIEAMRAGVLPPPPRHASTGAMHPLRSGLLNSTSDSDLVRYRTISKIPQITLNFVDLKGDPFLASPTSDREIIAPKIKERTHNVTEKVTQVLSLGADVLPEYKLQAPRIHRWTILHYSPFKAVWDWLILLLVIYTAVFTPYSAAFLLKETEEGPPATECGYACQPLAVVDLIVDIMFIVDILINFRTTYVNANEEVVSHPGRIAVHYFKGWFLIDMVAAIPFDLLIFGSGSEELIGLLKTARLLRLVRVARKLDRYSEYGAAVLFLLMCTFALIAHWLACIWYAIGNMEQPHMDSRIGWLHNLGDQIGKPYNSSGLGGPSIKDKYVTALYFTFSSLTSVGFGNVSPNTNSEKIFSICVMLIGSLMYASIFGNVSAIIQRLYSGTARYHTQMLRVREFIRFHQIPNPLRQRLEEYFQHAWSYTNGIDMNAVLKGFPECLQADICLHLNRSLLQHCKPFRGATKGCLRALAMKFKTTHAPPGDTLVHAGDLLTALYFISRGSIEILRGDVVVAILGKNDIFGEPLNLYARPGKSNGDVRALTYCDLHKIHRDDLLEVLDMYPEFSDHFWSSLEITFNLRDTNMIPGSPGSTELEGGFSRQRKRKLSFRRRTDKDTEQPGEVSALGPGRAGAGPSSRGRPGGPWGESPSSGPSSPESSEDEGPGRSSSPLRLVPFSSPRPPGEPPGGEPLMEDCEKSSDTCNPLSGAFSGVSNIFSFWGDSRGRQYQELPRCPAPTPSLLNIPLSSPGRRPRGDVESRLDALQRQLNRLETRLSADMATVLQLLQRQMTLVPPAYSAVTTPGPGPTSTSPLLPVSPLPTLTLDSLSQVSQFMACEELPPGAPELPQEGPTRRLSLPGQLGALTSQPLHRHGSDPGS
test.details: hERG tail current rescue from dofetilide, cell-based, Ionworks automated patch clamp, CHO-hERG, secondary (AID 2103)
assay.context: dofetilide IC70, at 10 µM, active compounds read high
This listing pairs compounds with measured current change vs dofetilide control, less the hit threshold.
# output: bare number, implied unit %

Completed entries (count: 4):
compound	experimental.result
CCOC(=O)c1c(C)[nH]c(C)c1S(=O)(=O)N1CCCCC1	-31.9
O=C1C2CC=CCC2C(=O)N1c1ccc(Cc2ccncc2)cc1 (stereo not given)	-31.9
O=C(c1csc(Nc2ccccc2Cl)n1)N1CCCC1	-45.9
CCc1ccc2nc(NC(=O)c3cc(C)on3)sc2c1	-43.6

Exercise: Name the recorded current change vs dofetilide control, less the hit threshold for NC(=O)C1CCN(C(=O)c2cc3c(s2)CCCC3)CC1 .
Key: -52.8
